system: Cryptococcus neoformans; conditions: Concentration 32 ug.mL-1; ASSAY_TEST Inhibition of Fungal Growth; detection method Resazurin; Absorption (OD600-OD570); plate type 384well; NBS; CORNING #3640
Description: Antifungal activity against Cryptococcus neoformans H99 ATCC 208821 (CO-ADD:FG_002); MIC in YNB media using NBS plates, by Resazurin OD(600-570)
Measured potencies and affinities stand elsewhere.

| CHEM_SMILES | MEASUREMENT_TARGET | Inhibition |
| --- | --- | --- |
| COc1ccc(NC(=O)Cn2nc3c(Oc4cccc(F)c4)nccn3c2=O)cc1 | Cryptococcus neoformans | -6.95% |
| Cc1ccc(Cl)cc1NC(=O)CSc1nnc2c(=O)n(-c3ccccc3)ccn12 | Cryptococcus neoformans | -17.19% |
| CCCCOc1ccc(-c2cc3c4nnc(SCC(=O)Nc5cc(C)ccc5OC)n4ccn3n2)cc1 | Cryptococcus neoformans | -16.58% |
| Cc1nnc2c(SCC(=O)Nc3ccc(Br)cc3F)nc3ccccc3n12 | Cryptococcus neoformans | -6.82% |
| CCOC(=O)c1ccc(NC(=O)Cn2nc3ccc(Sc4ccccc4)nn3c2=O)cc1 | Cryptococcus neoformans | -9.53% |
| COC(=O)c1ccccc1NC(=O)Cn1nc2c(Oc3ccccc3C)nccn2c1=O | Cryptococcus neoformans | -8.78% |
| COc1ccc(N(Cc2cccc(F)c2)S(=O)(=O)c2ccc3nncn3c2)cc1 | Cryptococcus neoformans | -1.54% |
| N#CCn1nc2n(Cc3ccc(F)cc3)c(=O)c3ccccc3n2c1=O | Cryptococcus neoformans | -7.73% |
| Cc1ccc(NC(=O)Cn2nc3ccc(SCc4ccc(Cl)cc4)nn3c2=O)cc1 | Cryptococcus neoformans | -7.75% |
| NC(=O)CSc1nnc2c(=O)n(-c3ccccc3)ccn12 | Cryptococcus neoformans | -20.31% |
| CCOC(=O)c1ccc(NC(=O)CSc2nnc3c4cc(-c5ccc(OC)cc5)nn4ccn23)cc1 | Cryptococcus neoformans | -22.98% |
| COc1cccc(Oc2nccn3c(=O)n(CC(=O)Nc4ccc(OC)c(Cl)c4)nc23)c1 | Cryptococcus neoformans | -8.33% |
| Cc1cccc(CN(c2ccc(C(C)C)cc2)S(=O)(=O)c2cccn3c(C)nnc23)c1 | Cryptococcus neoformans | -9.59% |
| Cc1ccc(-c2cc3c4nn(CC(=O)Nc5ccc(F)cc5Cl)c(=O)n4ccn3n2)cc1 | Cryptococcus neoformans | -28.25% |
| CCOc1ccc(NC(=O)Cn2nc3c(Oc4ccc(C)cc4)nccn3c2=O)cc1 | Cryptococcus neoformans | -8.36% |
| Cc1nnc2c(=O)n(CC(=O)Nc3ccc(F)cc3)c3ccccc3n12 | Cryptococcus neoformans | -6.03% |
| COc1cccc(NC(=O)Cn2nc3ccc(-c4ccc(C)c(C)c4)nn3c2=O)c1 | Cryptococcus neoformans | -10.05% |
| N#Cc1cccc(NC(=O)Cn2nc3c4cc(-c5ccc(Cl)cc5)nn4ccn3c2=O)c1 | Cryptococcus neoformans | -13.1% |
| Cc1c(Cl)cccc1NC(=O)Cn1nc2c(N3CCOCC3)nc3ccccc3n2c1=O | Cryptococcus neoformans | -24% |
| COc1ccc(-c2cc3c4nnc(SCC(=O)NCc5ccccc5Cl)n4ccn3n2)cc1 | Cryptococcus neoformans | -22.52% |

----------
test system: Cryptococcus neoformans; settings: Concentration 32 ug.mL-1; ASSAY_TEST Inhibition of Fungal Growth; detection method Resazurin; Absorption (OD600-OD570); plate type 384well; NBS; CORNING #3640
Entries with a potency or affinity are not part of this list.

| CHEM_SMILES | Inhibition, % |
| --- | --- |
| COc1cc(NC(=O)Cn2nc3c4c5c(sc4ncn3c2=O)CCCC5)cc(OC)c1 | -16.68 |
| COc1ccccc1-n1ccn2c(SCc3ccc(Cl)cc3)nnc2c1=O | -13.63 |
| COc1ccc(NC(=O)c2ccc3nn(CC(=O)Nc4ccc(C(C)=O)cc4)c(=O)n3c2)cc1 | -6.52 |
| Cc1ccccc1Oc1nccn2c(=O)n(CC(=O)Nc3cc(Cl)ccc3Cl)nc12 | -9.52 |
| Cc1ccc(Sc2nccn3c(=O)n(CC(=O)Nc4ccc(Br)cc4)nc23)c(C)c1 | -6.8 |
| COc1ccc(NC(=O)Cn2nc3c4cc(-c5ccc(C)c(C)c5)nn4ccn3c2=O)cc1 | -31.22 |
| CN(C)c1nc2ccccc2n2c(=O)n(CC(=O)Nc3ccc4c(c3)OCO4)nc12 | -12.71 |
| O=c1c2nnc(SCc3cccc(F)c3)n2ccn1-c1ccc(Br)cc1 | -10.68 |
| O=C(Cn1nc2c3cc(-c4ccc(F)cc4)nn3ccn2c1=O)Nc1ccc2c(c1)OCCO2 | -25.22 |
| Cc1cccc(Cn2nc3c(=O)n(-c4cccc(Cl)c4C)ccn3c2=O)c1 | -8.02 |
| Cc1ccc(CNC(=O)Cn2nc3ccc(SC4CCCCC4)nn3c2=O)cc1 | -15.57 |
| CCc1ccc(N(Cc2ccccc2)S(=O)(=O)c2cccn3cnnc23)cc1 | -3.81 |
| CC(C)CCNC(=O)Cn1nc2n(CC(C)C)c(=O)c3sccc3n2c1=O | -16.87 |
| Cc1ccccc1Nc1cc(C)n2c(=O)n(CCc3ccccc3)nc2n1 | -4.15 |
| CSc1cccc(NC(=O)Cn2c(=O)c3nnc(C)n3c3ccccc32)c1 | -2.25 |
| COc1cccc(CNC(=O)CSc2nnc3c4cc(-c5ccc(C)cc5)nn4ccn23)c1 | -12.58 |
| CCOC(=O)C1CCN(c2nc3ccccc3n3c(=O)n(CC(=O)Nc4ccccc4F)nc23)CC1 | -20.01 |
| CSc1cccc(NC(=O)Cn2nc3c(Sc4ccccc4)nccn3c2=O)c1 | -12.89 |
| CCCCn1c(=O)c2sccc2n2c(=O)n(CC(=O)N3CCC(Cc4ccccc4)CC3)nc12 | -0.28 |
| O=S(=O)(c1ccc2nncn2c1)N(Cc1cccc(F)c1)c1cc(F)cc(F)c1 | -6.89 |

----------
Quick reference for Inhibition among some compounds
tested on: Cryptococcus neoformans; conditions: Concentration 32 ug.mL-1; ASSAY_TEST Inhibition of Fungal Growth; detection method Resazurin; Absorption (OD600-OD570); plate type 384well; NBS; CORNING #3640
Results with a measured potency or affinity are listed apart.

| COMPOUND | MEASUREMENT_UNIT | Inhibition |
| --- | --- | --- |
| CCCc1nnc2c(=O)n(CC(=O)Nc3ccc(C(C)=O)cc3)c3ccccc3n12 | % | -9.17 |
| CCCCc1ccc(NC(=O)Cn2c(=O)c3nnc(C(C)C)n3c3ccccc32)cc1 | % | -30.75 |
| O=C(Cn1nc2c3cc(-c4ccc(F)cc4)nn3ccn2c1=O)NCc1ccccc1Cl | % | -27.16 |
| Cc1nnc2c(SCC(=O)Nc3ccc4c(c3)OCCO4)nc3ccccc3n12 | % | -7.59 |
| O=C(CCc1nnc2c(N3CCCCC3)nc3ccccc3n12)NCc1ccc2c(c1)OCO2 | % | -25.55 |
| Cc1ccccc1Oc1nc2ccccc2n2c(=O)n(CC(=O)NCc3ccc4c(c3)OCO4)nc12 | % | -16.39 |
| Cc1ccc(-c2ccc3nn(Cc4c(F)cccc4Cl)c(=O)n3n2)cc1 | % | -15.06 |
| CCOc1ccc(NC(=O)Cn2nc3ccc(-c4ccc(C)c(C)c4)nn3c2=O)cc1 | % | -10.52 |
| CC(C)Cn1c(=O)c2sccc2n2c(=O)n(Cc3ccc(Cl)cc3)nc12 | % | -15.45 |
| C=Cc1ccc(CN(c2cccc(F)c2)S(=O)(=O)c2ccc3nnc(C)n3c2)cc1 | % | -6.84 |
| O=c1n(Cc2cccc(C(F)(F)F)c2)nc2ccc(S(=O)(=O)N3CCCC3)cn12 | % | -10.53 |
| Cc1ccc(Oc2nccn3c(=O)n(CC(=O)Nc4ccc(C)cc4Cl)nc23)cc1 | % | -3.03 |
| O=C(CSc1nnc2c3cc(-c4ccc(F)cc4)nn3ccn12)NCc1ccc(Cl)cc1 | % | -17.49 |
| COc1ccc(OC)c(NC(=O)Cn2nc3ccc(-c4ccc(C)cc4)nn3c2=O)c1 | % | -12.04 |
| CC(C)NC(=O)CCn1c(=O)c2ccccc2n2c(=O)n(CC#N)nc12 | % | -13.64 |
| Cc1ccc(F)cc1NC(=O)CSc1nc2ccccc2n2c(C)nnc12 | % | -19.09 |
| CCCc1nnc2c(=O)n(CC(=O)Nc3ccc(Br)cc3)c3ccccc3n12 | % | -25.88 |
| CCC(C)NC(=O)c1ccc2c(=O)n(CCC(C)C)c3nn(CC#N)c(=O)n3c2c1 (centres undefined) | % | -22.02 |
| COc1ccc2[nH]cc(C(=O)CSc3nnc4c(=O)n(-c5ccc(F)cc5)ccn34)c2c1 | % | -7.69 |

----------
Inhibition values for the compounds below.
test system: Klebsiella pneumoniae; conditions: Concentration 32 ug.mL-1;; ASSAY_TEST Inhibition of Bacterial Growth; detection method Absorption (OD600); MEDIA CAMHB; plate type 384well; NBS; CORNING #3640; time 18 hr
Description: Antibacterial activity against Klebsiella pneumoniae MDR ATCC 70063 (CO-ADD:GN_003); MIC in CAMBH media using NBS plates, by OD(600)
Results with a measured potency or affinity are listed apart.

| CHEM_SMILES | Inhibition [%] |
| --- | --- |
| O=C(Cn1nc2ccc(Sc3cccc(F)c3)nn2c1=O)Nc1cccc(Cl)c1 | -3.42 |
| Cc1cc(C)c(NC(=O)CSc2nc3ccccc3n3c(C)nnc23)c(C)c1 | 10.14 |
| COc1ccccc1NC(=O)CSc1nnc2c(=O)n(-c3ccc(C)c(C)c3)ccn12 | 7.95 |
| Cc1ccc(-c2ccc3nn(CC(=O)N4CCN(c5ccccc5)CC4)c(=O)n3n2)cc1C | 1.81 |
